Assay system: myeloperoxidase (MPO) (Homo sapiens)
Sequence (P05164 165-273): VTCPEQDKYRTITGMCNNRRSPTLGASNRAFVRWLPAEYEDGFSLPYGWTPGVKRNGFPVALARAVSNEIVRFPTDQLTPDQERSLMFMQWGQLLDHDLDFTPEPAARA
Sequence (P05164 279-745): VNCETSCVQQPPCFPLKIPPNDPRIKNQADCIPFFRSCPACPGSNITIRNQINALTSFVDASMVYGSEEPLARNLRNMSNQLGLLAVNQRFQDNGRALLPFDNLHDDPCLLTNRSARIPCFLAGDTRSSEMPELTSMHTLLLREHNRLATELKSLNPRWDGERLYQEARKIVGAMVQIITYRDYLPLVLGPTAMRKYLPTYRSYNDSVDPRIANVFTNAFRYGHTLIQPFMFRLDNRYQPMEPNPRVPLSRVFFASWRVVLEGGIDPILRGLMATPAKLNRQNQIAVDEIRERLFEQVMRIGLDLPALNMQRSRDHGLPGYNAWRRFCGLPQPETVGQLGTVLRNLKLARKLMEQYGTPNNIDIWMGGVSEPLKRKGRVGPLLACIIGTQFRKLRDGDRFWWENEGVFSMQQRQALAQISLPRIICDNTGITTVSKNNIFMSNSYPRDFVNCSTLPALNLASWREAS
Measurement notes: flash photolysis/recombination kinetics
Reported property: Kd (µM)
Could you give me the number in µM? Just the number is fine.

Challenge: Any idea what Kd was measured for [C-]#[O+] [CO] ?
Response given: 1600
